assay procedure: In vitro bone marrow assay
Type: cell-based
measurement parameters: primary human bone marrow mononuclear cells, 5 days exposure, total cell count, read-out: Human Bone Marrow Tox IC50

# molecule smiles, IC50 at 5 days
measured = [
    ("CCS(=O)(=O)c1ccc(-c2nn3c(c2C(=O)N[C@H]2N=C(c4ccccc4)c4cccc(F)c4NC2=O)OCC(C)(C)C3)c(F)c1", "> 40 µM"),
]

---

assay procedure: Shake flask determination of distribution coefficient (log D)
Format: physicochemical
measurement parameters: 1-octanol / phosphate buffer

# compound, logD
records = [
    ("CCS(=O)(=O)c1ccc(-c2nn3c(c2C(=O)N[C@H]2N=C(c4ccccc4)c4cccc(F)c4NC2=O)OCC(C)(C)C3)c(F)c1 [Example 2]", 3),
]
